# Tested on: Liver microsomes
# assay_name: Protein binding in rat liver microsomes in presence of NADPH after 1 hr at 10 uM
# Assay type: ADME, Microsome
property: Activity (pmol/mg/h)

Example entries and their recorded answers appear below.
Activity reported for this compound O=[14C](O)C[C@H]1CCc2c1n(Cc1ccc(Cl)cc1)c1c(Br)cc(F)cc21 : 460

Activity measured on [3H]C([3H])([3H])S(=O)(=O)c1cc(C(C)=O)c2c(c1)c1c(n2Cc2ccc(Cl)cc2)[C@@H](CC(=O)O)CC1 = 23

P. CC(=O)c1cc(F)cc2c3c(n(Cc4ccc(Cl)cc4)c12)[C@@H](C[14C](=O)O)CC3
Q. [3H]C([3H])([3H])S(=O)(=O)c1cc(C(C)O)c2c(c1)c1c(n2Cc2ccc(Cl)cc2)[C@@H](CC(=O)O)CC1 (some centres undefined)
[in] When P and Q are compared, which has the higher number for Activity? Please identify the chosen entry by its label.
[out] P
(P: 290 pmol/mg/h, Q: 13 pmol/mg/h)

###

# Tested on: Hepatocyte
# assay_name: Covalent protein binding in rat hepatocyte after 2 hrs at 10 uM
# Format: ADME, cell-based
# settings: hepatocytes
property: Activity (pmol/mg/h)

P. CC(=O)c1cc(F)cc2c3c(n(Cc4ccc(Cl)cc4)c12)[C@@H](C[14C](=O)O)CC3
Q. [3H]C([3H])([3H])S(=O)(=O)c1cc(C(C)=O)c2c(c1)c1c(n2Cc2ccc(Cl)cc2)[C@@H](CC(=O)O)CC1
R. O=[14C](O)C[C@H]1CCc2c1n(Cc1ccc(Cl)cc1)c1c(Br)cc(F)cc21
[in] Order by Activity, smallest first, the items presented above. A complete answer lists every label in the requested sequence.
[out] Q, P, R
(Q: 8 pmol/mg/h, P: 45 pmol/mg/h, R: 74 pmol/mg/h)

###

# assay_name: Cmax in Sprague-Dawley rat after 6 hrs at 100 mg/kg, po
# Type: ADME, organism-based
# Set-up: dose 100 mg/kg, route oral
# settings: in vivo
property: Cmax (µM)
Please give a number only; it is taken to be in µM.

# Cmax of CC(=O)c1cc(S(C)(=O)=O)cc2c3c(n(Cc4ccc(Cl)cc4)c12)[C@@H](CC(=O)[O-])CC3.[Na+] = 7

###

# System: Liver microsomes
# assay_name: Covalent protein binding in human liver microsomes in presence of NADPH after 1 hr at 10 uM
# Format: ADME, Microsome
property: Activity (pmol/mg/h)

The examples below pair each entry with its known result.
Form field, Activity with Liver microsomes, item [3H]C([3H])([3H])S(=O)(=O)c1cc(C(C)O)c2c(c1)c1c(n2Cc2ccc(Cl)cc2)[C@@H](CC(=O)O)CC1 (some centres undefined) : 9

Query CC(=O)c1cc(F)cc2c3c(n(Cc4ccc(Cl)cc4)c12)[C@@H](C[14C](=O)O)CC3 on Liver microsomes; Activity returned: 46

1. [3H]C([3H])([3H])S(=O)(=O)c1cc(C(C)=O)c2c(c1)c1c(n2Cc2ccc(Cl)cc2)[C@@H](CC(=O)O)CC1
2. O=[14C](O)C[C@H]1CCc2c1n(Cc1ccc(Cl)cc1)c1c(Br)cc(F)cc21
[in] // pick min by Activity: 1 , 2 // caller expects the label of the chosen entry
[out] 1

###

# assay_name: Cmax in Sprague-Dawley rat biliary fluid by bile duct cannulation study at 5 mg/kg, iv
# Format: ADME, organism-based
# Design: dose 5 mg/kg, route intravenous
property: Cmax (µM)

Input CC(O)c1cc(S(C)(=O)=O)cc2c3c(n(Cc4ccc(Cl)cc4)c12)[C@@H](CC(=O)[O-])CC3.[Na+] (stereo not given in full) . Output Cmax: 3900

Reported Cmax ( O=C([O-])C[C@H]1CCc2c1n(Cc1ccc(Cl)cc1)c1c(Br)cc(F)cc21.[Na+] ) = 29

Kindly note the recorded Cmax for CS(=O)(=O)c1cc(F)cc2c3c(n(Cc4ccc(Cl)cc4)c12)[C@@H](CC(=O)[O-])CC3.[Na+] , which is 103

1. CC(=O)c1cc(S(C)(=O)=O)cc2c3c(n(Cc4ccc(Cl)cc4)c12)[C@@H](CC(=O)[O-])CC3.[Na+]
2. CC(=O)c1cc(F)cc2c3c(n(Cc4ccc(Cl)cc4)c12)[C@@H](CC(=O)[O-])CC3.[Na+]
[in] // which entry reports the smaller Cmax, 1 or 2 ? // respond with label for picked entry
[out] 2
(2: 81 µM, 1: 1100 µM)

###

# assay_name: Plasma clearance in Sprague-Dawley rat at 10 mg/kg, po and 5 mg/kg, iv
# Format: ADME, organism-based
# Parameters: unit not given here
property: clearance

Field: example entries. Status: answers known.
Record CC(O)c1cc(S(C)(=O)=O)cc2c3c(n(Cc4ccc(Cl)cc4)c12)[C@@H](CC(=O)[O-])CC3.[Na+] (stereo not given in full) . Reported clearance: 50

For record CS(=O)(=O)c1cc(F)cc2c3c(n(Cc4ccc(Cl)cc4)c12)[C@@H](CC(=O)[O-])CC3.[Na+] the listed clearance is 2.4

Lookup result for CC(=O)c1cc(F)cc2c3c(n(Cc4ccc(Cl)cc4)c12)[C@@H](CC(=O)[O-])CC3.[Na+] ; measured clearance: 1.9

1. O=C([O-])C[C@H]1CCc2c1n(Cc1ccc(Cl)cc1)c1c(Br)cc(F)cc21.[Na+]
2. CC(=O)c1cc(S(C)(=O)=O)cc2c3c(n(Cc4ccc(Cl)cc4)c12)[C@@H](CC(=O)[O-])CC3.[Na+]
[in] Choose between 1 and 2 : whose measured clearance value is numerically larger? API: response body contains the label of the selected item.
[out] 2

###

# system_tested: Prostaglandin F2-alpha receptor (Homo sapiens)
# Sequence (P43088 whole entry): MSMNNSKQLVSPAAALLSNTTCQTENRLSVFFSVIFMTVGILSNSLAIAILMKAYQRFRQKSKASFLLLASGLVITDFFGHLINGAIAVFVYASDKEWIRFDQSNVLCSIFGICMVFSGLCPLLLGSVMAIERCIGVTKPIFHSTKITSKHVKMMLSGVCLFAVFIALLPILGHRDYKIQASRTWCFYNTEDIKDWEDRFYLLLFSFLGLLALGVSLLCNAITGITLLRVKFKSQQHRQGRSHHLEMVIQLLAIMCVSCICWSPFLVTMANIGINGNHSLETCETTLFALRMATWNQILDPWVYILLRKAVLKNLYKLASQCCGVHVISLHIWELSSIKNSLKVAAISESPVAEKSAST
pKi: −log10 of the molar value.
property: pKi

pKi of CC(=O)c1cc(F)cc2c3c(n(Cc4ccc(Cl)cc4)c12)[C@@H](CC(=O)O)CC3 , assay on Prostaglandin F2-alpha receptor (Homo sapiens), is < 4.70

###

# assay_name: Cmax in Sprague-Dawley rat after 6 hrs at 10 mg/kg, po
# Format: ADME, organism-based
# Set-up: dose 10 mg/kg, route oral
# settings: Sprague-Dawley, in vivo
property: Cmax (µM)

As a guide, the following entries are already answered.
Entry CC(=O)c1cc(F)cc2c3c(n(Cc4ccc(Cl)cc4)c12)[C@@H](CC(=O)[O-])CC3.[Na+] ; Cmax = 7.5

CS(=O)(=O)c1cc(F)cc2c3c(n(Cc4ccc(Cl)cc4)c12)[C@@H](CC(=O)[O-])CC3.[Na+] has a reported Cmax of 6.3

A. CC(O)c1cc(S(C)(=O)=O)cc2c3c(n(Cc4ccc(Cl)cc4)c12)[C@@H](CC(=O)[O-])CC3.[Na+] (some centres undefined)
B. O=C([O-])C[C@H]1CCc2c1n(Cc1ccc(Cl)cc1)c1c(Br)cc(F)cc21.[Na+]
[in] Would you kindly point out which of A and B has the smaller Cmax figure? # respond with the chosen item's label
[out] A
(A: 0.03 µM, B: 3.7 µM)

###

# Test system: Rattus norvegicus
# assay_name: AUC (0-6hrs) in Sprague-Dawley rat at 10 mg/kg, po
# Assay type: ADME, organism-based, Plasma
# Parameters: time < 6 hr, dose 10 mg/kg, route oral
# settings: in vivo
property: AUC (µM·h)
Just the number please, in µM·h, no unit attached.

Query CC(=O)c1cc(S(C)(=O)=O)cc2c3c(n(Cc4ccc(Cl)cc4)c12)[C@@H](CC(=O)[O-])CC3.[Na+] yields AUC of 30

###

# assay_name: Plasma half life in Sprague-Dawley rat at 5 mg/kg, iv
# Type: ADME, organism-based
# Parameters: dose 5 mg/kg, route intravenous
property: half-life (h)

Answered cases to consult:
Data point: CS(=O)(=O)c1cc(F)cc2c3c(n(Cc4ccc(Cl)cc4)c12)[C@@H](CC(=O)[O-])CC3.[Na+] ; half-life = 7

Sure, the documented half-life for CC(=O)c1cc(S(C)(=O)=O)cc2c3c(n(Cc4ccc(Cl)cc4)c12)[C@@H](CC(=O)[O-])CC3.[Na+] is 1.4

1. CC(=O)c1cc(F)cc2c3c(n(Cc4ccc(Cl)cc4)c12)[C@@H](CC(=O)[O-])CC3.[Na+]
2. O=C([O-])C[C@H]1CCc2c1n(Cc1ccc(Cl)cc1)c1c(Br)cc(F)cc21.[Na+]
[in] Endpoint returns the identifier whose half-life is numerically larger, either 1 or 2 . Mark your answer with the label of the selected entry.
[out] 2

###

# assay_name: Cmax in Sprague-Dawley rat at 10 mg/kg, po
# Type: ADME, organism-based
# Set-up: dose 10 mg/kg, route oral
# settings: in vivo
property: Cmax (µM)

Note to self: Cmax recorded for CS(=O)(=O)c1cc(F)cc2c3c(n(Cc4ccc(Cl)cc4)c12)[C@@H](CC(=O)[O-])CC3.[Na+] was 39

a. CC(=O)c1cc(F)cc2c3c(n(Cc4ccc(Cl)cc4)c12)[C@@H](CC(=O)[O-])CC3.[Na+]
b. O=C([O-])C[C@H]1CCc2c1n(Cc1ccc(Cl)cc1)c1c(Br)cc(F)cc21.[Na+]
[in] Which entry has a larger number for Cmax, a or b ? Choose, then provide that item's label.
[out] a

P. CC(=O)c1cc(S(C)(=O)=O)cc2c3c(n(Cc4ccc(Cl)cc4)c12)[C@@H](CC(=O)[O-])CC3.[Na+]
Q. CC(O)c1cc(S(C)(=O)=O)cc2c3c(n(Cc4ccc(Cl)cc4)c12)[C@@H](CC(=O)[O-])CC3.[Na+] (stereo not given in full)
[in] Select one. Lower Cmax: P or Q Write the label of whichever entry you select.
[out] Q
(Q: 0.29 µM, P: 21 µM)
